Provenance of the data: ChEMBL document CHEMBL3621116

experiment: Volume of distribution at steady state in Sprague-Dawley rat at 5 mg/kg, iv; assay type: ADME, organism-based; settings: in vivo, read-out: Vdss
QUANTITY_KIND: Vd

>>> meas_value("NCCn1c(C2CCNCC2)nc2cc(C(N)=O)ccc21")
"0.5 L/kg"

* * *

target: Tyrosine-protein kinase JAK3 (Homo sapiens); assay: Inhibition of JAK3 (unknown origin) using 16 uM of ATP and Tyr6 peptide by Z'-LYTE kinase assay
Sequence (P52333 whole entry): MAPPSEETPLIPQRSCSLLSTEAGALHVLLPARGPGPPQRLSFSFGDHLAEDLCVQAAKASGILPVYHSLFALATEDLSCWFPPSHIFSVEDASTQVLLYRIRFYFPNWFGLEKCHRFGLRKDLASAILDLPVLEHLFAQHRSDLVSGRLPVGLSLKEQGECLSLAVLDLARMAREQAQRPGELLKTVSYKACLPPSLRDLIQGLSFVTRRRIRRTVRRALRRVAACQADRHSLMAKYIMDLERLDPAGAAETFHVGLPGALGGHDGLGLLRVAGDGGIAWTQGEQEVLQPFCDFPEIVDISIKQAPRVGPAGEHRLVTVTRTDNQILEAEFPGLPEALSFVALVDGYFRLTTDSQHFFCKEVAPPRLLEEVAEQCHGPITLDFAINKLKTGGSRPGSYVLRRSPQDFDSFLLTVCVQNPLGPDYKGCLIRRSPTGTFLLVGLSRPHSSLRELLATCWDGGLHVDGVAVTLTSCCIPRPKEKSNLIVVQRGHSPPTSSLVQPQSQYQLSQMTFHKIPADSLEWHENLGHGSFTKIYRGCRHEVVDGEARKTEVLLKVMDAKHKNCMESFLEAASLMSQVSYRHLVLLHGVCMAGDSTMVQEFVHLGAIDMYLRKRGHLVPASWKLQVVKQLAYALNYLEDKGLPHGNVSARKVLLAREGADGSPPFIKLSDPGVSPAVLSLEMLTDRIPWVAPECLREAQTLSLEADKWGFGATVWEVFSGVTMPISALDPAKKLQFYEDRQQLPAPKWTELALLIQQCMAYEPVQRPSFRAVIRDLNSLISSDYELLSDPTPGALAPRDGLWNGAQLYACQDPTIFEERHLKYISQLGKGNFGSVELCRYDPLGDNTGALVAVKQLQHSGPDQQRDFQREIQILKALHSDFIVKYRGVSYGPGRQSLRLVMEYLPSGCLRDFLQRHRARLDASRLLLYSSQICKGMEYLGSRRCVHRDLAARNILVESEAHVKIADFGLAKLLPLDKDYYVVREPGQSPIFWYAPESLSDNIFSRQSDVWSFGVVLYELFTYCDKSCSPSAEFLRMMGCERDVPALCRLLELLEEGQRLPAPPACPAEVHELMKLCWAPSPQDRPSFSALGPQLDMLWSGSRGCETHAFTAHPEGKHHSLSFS
pIC50: −log10 of the molar value.
QUANTITY_KIND: pIC50

>>> meas_value("NCCn1c(-c2ccccc2)nc2cc(C(N)=O)ccc21")
4.85
>>> meas_value("NCCCn1c(-c2ccccc2)nc2cc(C(N)=O)ccc21")
5.74
>>> meas_value("NCCn1c(C2CCNCC2)nc2cc(C(N)=O)ccc21")
5.90
>>> meas_value("NCCn1c(-c2cncnc2)nc2cc(C(N)=O)ccc21")
5.60

* * *

molecular target: Non-receptor tyrosine-protein kinase TYK2 (Homo sapiens); assay: Inhibition of Tyk2 (unknown origin) using 25 uM of ATP and Tyr3 peptide by Z'-LYTE kinase assay
Sequence (P29597 whole entry): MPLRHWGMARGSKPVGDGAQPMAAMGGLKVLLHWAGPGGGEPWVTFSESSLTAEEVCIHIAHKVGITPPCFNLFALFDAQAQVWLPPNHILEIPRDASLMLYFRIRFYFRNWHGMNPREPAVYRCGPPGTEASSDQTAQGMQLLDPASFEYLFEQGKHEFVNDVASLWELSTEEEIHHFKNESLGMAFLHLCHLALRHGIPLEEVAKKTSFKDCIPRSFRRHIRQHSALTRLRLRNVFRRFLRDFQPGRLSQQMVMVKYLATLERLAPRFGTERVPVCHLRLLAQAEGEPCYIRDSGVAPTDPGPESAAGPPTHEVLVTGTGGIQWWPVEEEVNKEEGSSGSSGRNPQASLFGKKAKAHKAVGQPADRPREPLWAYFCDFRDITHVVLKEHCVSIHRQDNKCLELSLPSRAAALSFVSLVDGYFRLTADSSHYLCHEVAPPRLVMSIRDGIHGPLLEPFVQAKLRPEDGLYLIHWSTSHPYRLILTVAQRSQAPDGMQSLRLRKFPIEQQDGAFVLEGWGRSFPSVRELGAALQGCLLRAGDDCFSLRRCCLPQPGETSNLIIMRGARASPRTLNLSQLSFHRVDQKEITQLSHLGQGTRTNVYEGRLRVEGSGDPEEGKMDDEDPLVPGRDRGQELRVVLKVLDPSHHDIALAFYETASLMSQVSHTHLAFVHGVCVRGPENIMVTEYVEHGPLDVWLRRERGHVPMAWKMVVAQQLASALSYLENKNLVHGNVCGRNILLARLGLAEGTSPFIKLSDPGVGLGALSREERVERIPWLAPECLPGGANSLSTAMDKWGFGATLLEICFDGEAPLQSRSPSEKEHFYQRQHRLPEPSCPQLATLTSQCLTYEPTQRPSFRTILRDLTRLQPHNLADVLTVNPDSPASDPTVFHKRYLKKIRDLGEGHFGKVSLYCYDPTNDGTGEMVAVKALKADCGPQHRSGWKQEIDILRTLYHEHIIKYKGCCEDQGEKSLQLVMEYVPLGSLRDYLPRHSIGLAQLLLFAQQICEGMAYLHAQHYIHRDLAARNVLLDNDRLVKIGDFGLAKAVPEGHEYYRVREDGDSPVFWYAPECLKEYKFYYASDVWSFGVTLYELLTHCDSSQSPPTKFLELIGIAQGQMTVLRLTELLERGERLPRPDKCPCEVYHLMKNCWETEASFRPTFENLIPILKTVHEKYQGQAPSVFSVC
pIC50: −log10 of the molar value.
QUANTITY_KIND: pIC50

>>> meas_value("NCCCn1c(-c2ccccc2)nc2cc(C(N)=O)ccc21")
5.57
>>> meas_value("NCCn1c(C2CCNCC2)nc2cc(C(N)=O)ccc21")
5.43
>>> meas_value("NCCCc1nc2cc(C(N)=O)ccc2n1CCN")
5.60
>>> meas_value("NCCn1c(-c2ccc(O)cc2O)nc2cc(C(N)=O)ccc21")
5.43
>>> meas_value("NCCCn1c(CCN)nc2cc(C(N)=O)ccc21")
5.19
>>> meas_value("NCCn1c(-c2ccccc2)nc2cc(C(N)=O)ccc21")
5.38

* * *

species on record: Homo sapiens; test: Selectivity ratio of IC50 for JAK3 (unknown origin) using 16 uM of ATP and Tyr6 peptide to IC50 for JAK1 (unknown origin) using 87 uM of ATP and Tyr6 peptide
Kind request: treat 0.9 as inclusive, so Ratio IC50 at 0.9 or higher is true (1), anything lower is false (0).

>>> class_assignment("CC(C)c1ccc(-c2nc3cc(C(N)=O)ccc3n2CCN)cc1")
"false (0)"
>>> class_assignment("NCCc1nc2cc(C(N)=O)ccc2n1CCN")
"true (1)"
>>> class_assignment("NCCCn1c(-c2ccccc2)nc2cc(C(N)=O)ccc21")
"false (0)"
>>> class_assignment("NCCn1c(-c2cncnc2)nc2cc(C(N)=O)ccc21")
"false (0)"
>>> class_assignment("NCCn1c(-c2ccc(O)cc2)nc2cc(C(N)=O)ccc21")
"true (1)"
>>> class_assignment("NCCCc1nc2cc(C(N)=O)ccc2n1CCN")
"false (0)"
>>> class_assignment("NCCn1c(-c2ccccc2)nc2cc(C(N)=O)ccc21")
"true (1)"
>>> class_assignment("NCCn1c(C2CCCCC2)nc2cc(C(N)=O)ccc21")
"false (0)"
>>> class_assignment("NCCn1c(C2CCNCC2)nc2cc(C(N)=O)ccc21")
"true (1)"
>>> class_assignment("Cc1ccc(-c2nc3cc(C(N)=O)ccc3n2CCN)cc1")
"false (0)"
>>> class_assignment("NCCn1c(-c2ccncc2)nc2cc(C(N)=O)ccc21")
"false (0)"
